The following sequences are shown together with reported phosphorylation enrichment values.
system: Fer (mouse); assay: phosphorylation enrichment, bacterial display (enrichment ratio); higher = better substrate or ligand; peptides without Tyr show the background
Lab note: record just the number, no unit beside it.

residue string: GGYTCCCDGKK [PROS1_Y266_Y266C]
target of assay: Fer (mouse)
phosphorylation enrichment: 0.513

# return phosphorylation enrichment of SLIDGYFRLTA [JAK2_Y372_YF] (system: Fer (mouse))
0.514

# return phosphorylation enrichment of RIAFQYGDTDL [MYBPC3_Y340_V342D] (system: Fer (mouse))
0.689

# return phosphorylation enrichment of APGNAYGDAGY [SYP_Y250_D248N] (system: Fer (mouse))
0.452

# return phosphorylation enrichment of QNKEDYDGLKE [GSTO1_Y139_A140D] (system: Fer (mouse));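 further: frequency after pTyr selection over input frequency; kinase dosed for 20-30% of maximal phosphorylation in three min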
0.754

# return phosphorylation enrichment of KVNKIYYPDFI [LIG3_Y767] (system: Fer (mouse));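 further: frequency after pTyr selection over input frequency; kinase dosed for 20-30% of maximal phosphorylation in three min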
0.481

# return phosphorylation enrichment of FRQLPYCPSVE [CTNND2_Y508_Q507P_YF] (system: Fer (mouse));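 further: frequency after pTyr selection over input frequency; kinase dosed for 20-30% of maximal phosphorylation in three min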
0.603

# return phosphorylation enrichment of SSVKLYRVFCD [FGB_Y266_P265L_YF] (system: Fer (mouse));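 further: 11-residue human phosphosite peptides and single-mutation variants displayed on the E. coli surface, counted by deep sequencing, each peptide's frequency after selection divided by its frequency in the unselected input library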;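 further: frequency after pTyr selection over input frequency; kinase dosed for 20-30% of maximal phosphorylation in three min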
0.469
